tested on: CHL-1; experiment: cells; assay type: functional, cell-based, Homo sapiens; settings: Homo sapiens, CHL-1;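 also: cell growth inhibition, read out with a cell viability assay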
Description: SANGER: Inhibition of human CHL-1 cell growth in a cell viability assay.
MEASURE: IC50

Challenge: Request the reported IC50 associated with COc1ccc(-c2ccc3c(N4CCOC[C@@H]4C)nc(N4CCOC[C@@H]4C)nc3n2)cc1CO
Response given: 327 nM

Challenge: I have this compound here, Cc1cnc(-c2cnc(NCCNc3ccc(C#N)cn3)nc2-c2ccc(Cl)cc2Cl)[nH]1 , and I need its recorded IC50.
Response given: > 2560 nM

Challenge: Quick check: IC50 of CC(=O)O[C@@]12CO[C@@H]1C[C@H](O)[C@@]1(C)C(=O)[C@H](O)C3=C(C)[C@@H](OC(=O)[C@H](O)[C@@H](NC(=O)OC(C)(C)C)c4ccccc4)C[C@@](O)([C@@H](OC(=O)c4ccccc4)[C@H]21)C3(C)C ?
Response given: 0.958 nM

Challenge: What does the record list as IC50 for Cc1cc([C@@H](C)Nc2ccccc2C(=O)O)c2nc(N3CCOCC3)cc(=O)n2c1 ?
Response given: > 5120 nM

Challenge: # query: IC50 of entry COc1ccc(C2=N[C@@H](c3ccc(Cl)cc3)[C@@H](c3ccc(Cl)cc3)N2C(=O)N2CCNC(=O)C2)c(OC(C)C)c1
Response given: > 8000 nM

Challenge: Endpoint output: IC50 of O=c1cc(-c2cccc3c2Sc2ccccc2S3)oc(N2CCOCC2)c1 . Value?
Response given: > 10000 nM

Challenge: Form field: reported IC50 of Cn1cc(C2=C(c3ccc(Cl)cc3Cl)C(=O)NC2=O)c2ccccc21
Response given: > 10000 nM

Challenge: Consider the compound shown here: Cn1cncc1[C@@](N)(c1ccc(Cl)cc1)c1ccc2c(c1)c(-c1cccc(Cl)c1)cc(=O)n2C What is its recorded IC50?
Response given: 805 nM

---

test system: KYSE-510; assay: cells; type: functional, cell-based, Homo sapiens; details: Homo sapiens, KYSE-510;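 also: cell viability readout used to measure how strongly growth of the cell line is suppressed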
Description: SANGER: Inhibition of human KYSE-510 cell growth in a cell viability assay.
Would you kindly list IC50 for each of these molecules?

Challenge: Can you share its IC50? I mean this molecule: Cc1cc([C@@H](C)Nc2ccccc2C(=O)O)c2nc(N3CCOCC3)cc(=O)n2c1
Response given: > 5120 nM

Challenge: Form field: reported IC50 of CCC1=C[C@@H]2CN(C1)Cc1c([nH]c3ccccc13)[C@@](C(=O)OC)(c1cc3c(cc1OC)N(C)[C@H]1[C@@](O)(C(=O)OC)[C@H](OC(C)=O)[C@]4(CC)C=CCN5CC[C@]31[C@@H]54)C2
Response given: 4.19 nM

Challenge: Which measured IC50 value corresponds to COc1ccc(-c2ccc3c(N4CCOC[C@@H]4C)nc(N4CCOC[C@@H]4C)nc3n2)cc1CO ?
Response given: > 2000 nM

---

Would you kindly list IC50 for each of these molecules?
test system: NB6; assay: cells; format: functional, cell-based, Homo sapiens; conditions: Homo sapiens, NB6;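 also: growth inhibition of NB6 cells, read out by a cell viability assay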
Description: SANGER: Inhibition of human NB6 cell growth in a cell viability assay.

Challenge: Consider the molecule shown here: C=C1C(=O)O[C@@H]2C3O[C@]3(C)CC/C=C(\C)CC[C@@H]12 (stereo partly drawn) What is its recorded IC50?
Response given: > 5 µM

Challenge: So what's the measured IC50 for this one? CCc1nc(N)nc(N)c1-c1ccc(Cl)cc1 [PYRIMETHAMINE]
Response given: > 20 µM

Challenge: Query (molecule): Cn1cc(C2=C(c3ccc(Cl)cc3Cl)C(=O)NC2=O)c2ccccc21 [SB-216763] ; field requested: IC50
Response given: > 10 µM

Challenge: Entry CCC(=O)N1CCN(c2ccc(-n3c(=O)ccc4cnc5ccc(-c6cnc7ccccc7c6)cc5c43)cc2C(F)(F)F)CC1 [TORIN1] : reported IC50 = ?
Response given: 0.0527 µM

Challenge: Consider the molecule shown here: COc1cc(F)c(F)c(Nc2ccc(I)cc2F)c1NS(=O)(=O)C1(CC(O)CO)CC1 (stereo not drawn) What is its recorded IC50?
Response given: > 5 µM

Challenge: Returns the measured IC50 for the input molecule. Input: C[C@]1(O)C[C@@H](c2nc(-c3ccc4ccc(-c5ccccc5)nc4c3)c3c(N)nccn32)C1 [LINSITINIB]
Response given: > 2.56 µM

Challenge: Please report the recorded IC50 for COc1ccc(C2=N[C@@H](c3ccc(Cl)cc3)[C@@H](c3ccc(Cl)cc3)N2C(=O)N2CCNC(=O)C2)c(OC(C)C)c1 [NUTLIN-3] .
Response given: > 8 µM

Challenge: IC50 for CNC(=O)c1cc(Oc2ccc(NC(=O)Nc3ccc(Cl)c(C(F)(F)F)c3)cc2)ccn1 [SORAFENIB] ?
Response given: > 4 µM

Where do these numbers come from? They come from ChEMBL document CHEMBL1201861.
